Source of measurements: patent US20230303562A1

System tested: UniProt P36897
Sequence (P36897 34-503): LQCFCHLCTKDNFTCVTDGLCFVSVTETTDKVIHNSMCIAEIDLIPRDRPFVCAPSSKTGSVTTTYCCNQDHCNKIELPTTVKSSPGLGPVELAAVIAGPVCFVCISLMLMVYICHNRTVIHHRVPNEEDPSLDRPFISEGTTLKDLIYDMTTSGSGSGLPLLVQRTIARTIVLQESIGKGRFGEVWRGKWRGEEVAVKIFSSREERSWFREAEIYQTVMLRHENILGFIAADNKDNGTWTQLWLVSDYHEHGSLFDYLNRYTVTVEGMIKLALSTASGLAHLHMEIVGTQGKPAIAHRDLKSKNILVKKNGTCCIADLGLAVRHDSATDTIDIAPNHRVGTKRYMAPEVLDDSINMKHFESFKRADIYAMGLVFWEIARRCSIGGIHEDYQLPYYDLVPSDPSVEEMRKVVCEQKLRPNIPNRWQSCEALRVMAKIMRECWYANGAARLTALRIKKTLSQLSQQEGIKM
Protocol: In vitro enzymatic activity inhibition test (TGFβR1), ADP-Glo Kinase Detection Kit
Assay type: biochemical
Measurement setup: estimated from inhibition at 1000, 100, 10 nM
Quantity kind: IC50
Please answer using the number first and the unit second.

Entry Cc1cccc(-n2nccc2-c2ccc3ncsc3c2)n1 , UniProt P36897 data, IC50 value: 48.6 nM
